B1: Cyclin-F, residues 28 to 80; numbered along this chain, P41002 (parent)
chain: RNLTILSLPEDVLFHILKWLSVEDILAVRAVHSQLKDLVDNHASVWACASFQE

variants of: B1; experiment: abundance fitness (aPCA) (normalised: wild type 0, dead -1); higher = more abundant; growth selection in yeast, the domain comes from the species named; details: Homo sapiens
measurementName: abundance fitness
Lab note: record the figure alone, no unit after it.

Recorded results for 4 variants are shown here.
mutationLabel: N2P
abundance fitness: -0.185
--
mutationLabel: A27I
abundance fitness: -0.285
--
mutationLabel: A47K
abundance fitness: -0.181
--
mutationLabel: L35K
abundance fitness: -0.805

Which measured abundance fitness value corresponds to S7I ? -0.426

Which measured abundance fitness value corresponds to L38R ? -0.633

Which measured abundance fitness value corresponds to S33Y ? -0.791

Which measured abundance fitness value corresponds to V45I ? -0.026

Which measured abundance fitness value corresponds to K36F ? -0.811

Which measured abundance fitness value corresponds to A49P ? 0.126
